B1: TPR t1 (parent)
chain: GACCAAUCUGCCCUCAGAGCUCGAGAACAUCUUCGGAUGCAGAGGAGGCAGGCUUCGGUGGCGCGAUAGCGCCAACGUCCUCAACCUCCAAUGCAUCCCACCACAUGAUGAUGCCUGAAGAGCCUUGGUUUUUUG

Variants of: B1
MEASUREMENT PROTOCOL: polymerase ribozyme fitness, log enrichment relative to wild type (log ratio); higher = more active; in vitro selection for triplet polymerase activity
Lab note: compare polymerase ribozyme fitness (log ratio) against -3. Equal or greater, write Criterion met. Smaller, write Criterion not met.

{"VARIANT DESCRIPTOR": "C8A G45C G58A C97G U106A", "LABEL": "Criterion not met"}
{"VARIANT DESCRIPTOR": "C11A C12G C20U U55A C56U G93C", "LABEL": "Criterion not met"}
{"VARIANT DESCRIPTOR": "C20A C98G", "LABEL": "Criterion not met"}
{"VARIANT DESCRIPTOR": "C73G A105U", "LABEL": "Criterion met"}
{"VARIANT DESCRIPTOR": "G52U G61C U130G", "LABEL": "Criterion met"}
{"VARIANT DESCRIPTOR": "U54A C88G C89U C115A", "LABEL": "Criterion met"}
{"VARIANT DESCRIPTOR": "C49G G61U C88A", "LABEL": "Criterion met"}
{"VARIANT DESCRIPTOR": "G44A C101A", "LABEL": "Criterion met"}
{"VARIANT DESCRIPTOR": "C56A A66G A75G", "LABEL": "Criterion met"}
{"VARIANT DESCRIPTOR": "A2C C4U U9A C76U", "LABEL": "Criterion met"}
{"VARIANT DESCRIPTOR": "U7C C56A G71U A90C", "LABEL": "Criterion not met"}
{"VARIANT DESCRIPTOR": "C56U G128U", "LABEL": "Criterion met"}
{"VARIANT DESCRIPTOR": "G36U U112G", "LABEL": "Criterion met"}
{"VARIANT DESCRIPTOR": "C49U G69U", "LABEL": "Criterion met"}
{"VARIANT DESCRIPTOR": "A5G G57U A100U", "LABEL": "Criterion met"}
{"VARIANT DESCRIPTOR": "A105U U126A U129A U130G", "LABEL": "Criterion not met"}
{"VARIANT DESCRIPTOR": "C34A G48C G77A", "LABEL": "Criterion met"}
{"VARIANT DESCRIPTOR": "G35U G113A", "LABEL": "Criterion not met"}
{"VARIANT DESCRIPTOR": "C40U G47A U109A C114U", "LABEL": "Criterion not met"}
{"VARIANT DESCRIPTOR": "A29C A46U U54G U78C G120U", "LABEL": "Criterion not met"}
{"VARIANT DESCRIPTOR": "A24G G47C A90U", "LABEL": "Criterion not met"}
{"VARIANT DESCRIPTOR": "G36A C49A G110C", "LABEL": "Criterion not met"}
{"VARIANT DESCRIPTOR": "C4G U7C C56U G60U C101A", "LABEL": "Criterion not met"}
{"VARIANT DESCRIPTOR": "C62A C72U G93C", "LABEL": "Criterion met"}
{"VARIANT DESCRIPTOR": "C97U G117A", "LABEL": "Criterion met"}
{"VARIANT DESCRIPTOR": "A18G G23A C53U U59C C79A G117C U133C", "LABEL": "Criterion not met"}
{"VARIANT DESCRIPTOR": "C8G G10U G36U", "LABEL": "Criterion met"}
{"VARIANT DESCRIPTOR": "C40U U116A", "LABEL": "Criterion not met"}
{"VARIANT DESCRIPTOR": "A29C A41U C64U", "LABEL": "Criterion not met"}
{"VARIANT DESCRIPTOR": "C97G", "LABEL": "Criterion not met"}
{"VARIANT DESCRIPTOR": "C11U C97U", "LABEL": "Criterion met"}
{"VARIANT DESCRIPTOR": "C12A A26G", "LABEL": "Criterion met"}
{"VARIANT DESCRIPTOR": "C40A A41U G57C C104U C114U", "LABEL": "Criterion not met"}
{"VARIANT DESCRIPTOR": "G69U C89G", "LABEL": "Criterion met"}
{"VARIANT DESCRIPTOR": "G52U U106A", "LABEL": "Criterion met"}
{"VARIANT DESCRIPTOR": "A16C C72A G110U", "LABEL": "Criterion not met"}
{"VARIANT DESCRIPTOR": "G69U C124G", "LABEL": "Criterion met"}
{"VARIANT DESCRIPTOR": "U116C G127A U130G", "LABEL": "Criterion not met"}
{"VARIANT DESCRIPTOR": "U55C C70U C88G", "LABEL": "Criterion met"}
{"VARIANT DESCRIPTOR": "G19C G36A G48A C82U C124A", "LABEL": "Criterion not met"}
{"VARIANT DESCRIPTOR": "U30G U54A U112C", "LABEL": "Criterion not met"}
{"VARIANT DESCRIPTOR": "C11U A84G C89U G93U", "LABEL": "Criterion met"}
{"VARIANT DESCRIPTOR": "C13U G35C", "LABEL": "Criterion not met"}
{"VARIANT DESCRIPTOR": "A27G C56A A74C U87A U112A", "LABEL": "Criterion met"}
{"VARIANT DESCRIPTOR": "A2C C49G U67G A84G G110U", "LABEL": "Criterion not met"}
{"VARIANT DESCRIPTOR": "A5U A26G", "LABEL": "Criterion met"}

The measurements presented in this section are drawn from the RNAGym collection of RNA variant scans (doi:10.1073/pnas.2313332121).
